Measured values drawn from patent US4420482A for this set.

protocolText: Comparative oral acute toxicity in the mouse
Type: in vivo
conditionSet: in vivo, oral, read-out: oral LD 50
endpoint: LD50 at 168 h

Task item: Looking for the measured LD50 at 168 h of CC(=O)Oc1ccccc1C(=O)OCCN1CCN(CCOC(=O)c2ccccc2OC(C)=O)CC1 [S.1528] , can you help?
Reply: ~2600 mg/kg
